From various publications: IC50 for Glucocorticoid receptor (Homo sapiens).

>  <COMPOUND>
Cc1cc(-n2ncc3cc4c(cc32)CCC[C@@H]2C[C@@](C)(O)CC[C@]42Cc2ccccn2)ccn1

>  <IC50>
100 to 1000 nM

$$$$
>  <COMPOUND>
CCC[C@@]1(O)CC[C@@]2(CC)c3ccc(C(=O)Nc4cccnc4C)cc3C(=O)CC[C@H]2C1 (single isomer, unassigned)

>  <IC50>
100 to 1000 nM

$$$$
>  <COMPOUND>
C[C@H](NC(=O)C(C)(F)F)[C@H](Oc1ccc2c(cnn2-c2cccc(C(=O)N[C@@H](C(N)=O)c3ccccc3)c2)c1)c1ccccc1

>  <IC50>
3.55 nM

$$$$
>  <COMPOUND>
CCn1nc(-c2ccccn2)c2c1NC(=O)CCC2c1ccc(C(=O)Nc2cccnc2C)cc1C (stereo not shown)

>  <IC50>
100 to 1000 nM

$$$$
>  <COMPOUND>
N#CC[C@@]1(O)CC[C@@]2(CC3CC3)c3cc4cnn(-c5ccc(F)cc5)c4cc3CCC[C@H]2C1

>  <IC50>
< 100 nM

$$$$
>  <COMPOUND>
Cc1ccc(C#N)cc1C1SC(C)(C)CNc2c1c(C1CC1)nn2C (stereo not shown)

>  <IC50>
100 to 1000 nM

$$$$
>  <COMPOUND>
Cn1nc(-c2ccccn2)c2c1NCCSC2c1ccc(-c2cncc(C#N)c2)cc1Cl (stereo not shown)

>  <IC50>
100 to 1000 nM

$$$$
>  <COMPOUND>
Cc1cc(Cl)ccc1C1SC(CCO)C(C)Nc2c1c(C)nn2C (single isomer, unassigned)

>  <IC50>
100 to 1000 nM

$$$$
>  <COMPOUND>
Cn1nc(-c2ccc(F)cc2F)c2c1NCCSC2c1ccc(Cl)cc1Cl (stereo not shown)

>  <IC50>
100 to 1000 nM

$$$$
>  <COMPOUND>
Cc1ccc(Cl)cc1C1SC(C)(C)CNc2c1c(C1CC1)nn2C (stereo not shown)

>  <IC50>
< 100 nM

$$$$
>  <COMPOUND>
O=C(Cc1c(Cl)cccc1Cl)NCC(c1ccccc1)C(c1ccccc1)c1ccccc1 (stereo not shown)

>  <IC50>
340 nM

$$$$
>  <COMPOUND>
Cn1nc(-c2ccc(C(N)=O)cn2)c2c1NCCSC2c1ccc(Cl)cc1Cl (stereo not shown)

>  <IC50>
1000 to 10000 nM

$$$$
>  <COMPOUND>
CC[C@@]12CC[C@](O)(COCC(F)(F)F)C[C@@H]1CCCc1cc(C(=O)Nc3cccnc3C)ccc12 (racemic)

>  <IC50>
< 100 nM

$$$$
>  <COMPOUND>
O=S(=O)(NCC(c1ccc(Cl)cc1)C(c1ccccc1)c1ccccc1)c1cccs1 (stereo not shown)

>  <IC50>
491 nM

$$$$
>  <COMPOUND>
CC[C@@]1(O)CC[C@@]2(Cc3ccccc3)c3ccc(C(=O)Nc4cccnc4C)cc3CC(=O)C[C@H]2C1

>  <IC50>
< 100 nM

$$$$
>  <COMPOUND>
Cc1ccc(C(=O)NCC(c2ccccc2)C2c3ccccc3CCc3ccccc32)s1 (stereo not shown)

>  <IC50>
882 nM

$$$$

* * *

pIC50: −log10 of the molar value.
From various publications: pIC50 for Glucocorticoid receptor (Homo sapiens, UniProt P04150).
MEASUREMENT_LABEL: pIC50

>  <MOLECULE>
Cn1nc(-c2ccccn2)c2c1NCCSC2Cc1ccccc1 (stereo not shown)

>  <RELATION_OPERATOR>
<

>  <MEASURED_RESULT>
5.00

$$$$
>  <MOLECULE>
COc1ccc(CC(=O)NCC(c2ccccc2)C(c2ccccc2)c2ccccc2)cc1OC (stereo not shown)

>  <RELATION_OPERATOR>
=

>  <MEASURED_RESULT>
6.04

$$$$
>  <MOLECULE>
CCC[C@@]1(O)CC[C@@]2(CC)c3ccc(C(=O)Nc4ccccc4N)cc3CCC[C@H]2C1 (racemic)

>  <RELATION_OPERATOR>
>

>  <MEASURED_RESULT>
7.00

$$$$
>  <MOLECULE>
O=C(Cc1ccccc1)NCC(c1ccccc1)C1c2ccccc2CCc2ccccc21 (stereo not shown)

>  <RELATION_OPERATOR>
=

>  <MEASURED_RESULT>
6.11

$$$$
